- Tested on: S. pneumoniae 113
- protocol description: MIC determination, broth microdilution (CLSI)
- Assay type: cell-based
- condition: Streptococcus pneumoniae, 113, strain 13; broth microdilution; read-out: MIC strain 13 (S. pneumoniae 113)
recorded endpoint: MIC

Ask: Please give measured MIC of the following entry: CC1(C)[C@H](NC(=O)/C(=N\OCCOc2ccc(C3=NCC(N)CN3)cc2)c2csc(N)n2)C(=O)N1OS(=O)(=O)O (stereo partly shown)
Result: ≤ 0.063 µg/mL

Ask: Please give measured MIC of the following entry: C[C@H]1[C@H](NC(=O)/C(=N\OCCOc2ccc(C(=N)NCCO)cc2)c2csc(N)n2)C(=O)N1S(=O)(=O)O
Result: ≤ 0.063 µg/mL

Ask: Please give measured MIC of the following entry: C[C@H]1[C@H](NC(=O)/C(=N\OCCOc2ccc(C(=N)N)cc2)c2nc(N)sc2Cl)C(=O)N1S(=O)(=O)O
Result: ≤ 0.063 µg/mL

Ask: Please give measured MIC of the following entry: Cc1sc(C(=N)N)nc1OCCO/N=C(\C(=O)N[C@@H]1C(=O)N(OS(=O)(=O)O)C1(C)C)c1csc(N)n1
Result: ≤ 0.063 µg/mL

Ask: Please give measured MIC of the following entry: C[C@H]1[C@H](NC(=O)/C(=N\OCCOc2ccc(C(=N)N)cc2)c2nsc(N)n2)C(=O)N1S(=O)(=O)O
Result: 16 µg/mL

Ask: Please give measured MIC of the following entry: CC1(C)[C@H](NC(=O)/C(=N\OCCOc2ccc(C(=N)N)cc2)c2csc(N)n2)C(=O)N1OS(=O)(=O)O
Result: ≤ 0.063 µg/mL

Ask: Please give measured MIC of the following entry: C[C@H]1[C@H](NC(=O)/C(=N\OCCOc2ccc(C(=N)NN)cc2)c2csc(N)n2)C(=O)N1S(=O)(=O)O
Result: 32 µg/mL

====

- Tested on: A. baumannii ATCC15308
- protocol description: MIC determination, broth microdilution (CLSI)
- Assay type: cell-based
- condition: Acinetobacter baumannii, ATCC15308, strain 9
recorded endpoint: MIC (mg/L)
// note: answer is a bare numeric in mg/L

Ask: Please give measured MIC of the following entry: CC1(C)[C@H](NC(=O)/C(=N\OCCOc2ccc(C(=N)NCCN)nc2)c2csc(N)n2)C(=O)N1OS(=O)(=O)O
Result: 4

Ask: Please give measured MIC of the following entry: CC1(C)[C@H](NC(=O)/C(=N\OCCOc2ccc(C(=N)N[C@H](CN)CO)cc2)c2csc(N)n2)C(=O)N1OS(=O)(=O)O
Result: 2

Ask: Please give measured MIC of the following entry: CC(C)(N)CNC(=N)c1ccc(OC[C@H](O/N=C(\C(=O)N[C@@H]2C(=O)N(OS(=O)(=O)O)C2(C)C)c2csc(N)n2)C(=O)O)cc1
Result: 2

Ask: Please give measured MIC of the following entry: C[C@H]1[C@H](NC(=O)/C(=N\OCCOc2nc(C(=N)N)cs2)c2csc(N)n2)C(=O)N1S(=O)(=O)O
Result: 1

Ask: Please give measured MIC of the following entry: CC1(C)[C@H](NC(=O)/C(=N\OCCCOc2ccc(C(=N)N)cc2)c2csc(N)n2)C(=O)N1OS(=O)(=O)O
Result: 16

Ask: Please give measured MIC of the following entry: CNCCNC(=N)c1ccc(OC[C@H](O/N=C(\C(=O)N[C@@H]2C(=O)N(OS(=O)(=O)O)C2(C)C)c2csc(N)n2)C(=O)O)cc1
Result: 2

====

- Tested on: A. baumannii ATCC15308
- protocol description: MIC determination, broth microdilution (CLSI)
- Type: cell-based
- condition: Acinetobacter baumannii, ATCC15308, strain 9
Threshold 4 µg/mL. MIC below it: Satisfied. MIC at it or above: Not satisfied.

Ask: Confirm or reject: MIC of C[C@@H]1[C@H](NC(=O)/C(=N\OCCCOc2ccc(C(=N)N)cc2)c2csc(N)n2)C(=O)N1S(=O)(=O)O lies strictly below 4 µg/mL
Result: Not satisfied

Ask: Confirm or reject: MIC of CC1(C)[C@H](NC(=O)/C(=N\OCCOc2ccc(C(=N)NCC(=O)O)cc2)c2csc(N)n2)C(=O)N1OS(=O)(=O)O lies strictly below 4 µg/mL
Result: Not satisfied

Ask: Confirm or reject: MIC of CC1(C)[C@H](NC(=O)/C(=N\OCCOc2ccc(C(=N)N)c(O)c2)c2csc(N)n2)C(=O)N1OS(=O)(=O)O lies strictly below 4 µg/mL
Result: Not satisfied

Ask: Confirm or reject: MIC of CC1(C)[C@H](NC(=O)/C(=N\OCC(Oc2ccc(C(=N)N)cc2)C(=O)O)c2csc(N)n2)C(=O)N1OS(=O)(=O)O (single isomer, unassigned) [Example 87A] lies strictly below 4 µg/mL
Result: Not satisfied

Ask: Confirm or reject: MIC of CC1(C)[C@H](NC(=O)/C(=N\OCCOc2ccc(C(=N)NCCNC=N)cc2)c2csc(N)n2)C(=O)N1OS(=O)(=O)O lies strictly below 4 µg/mL
Result: Satisfied

Ask: Confirm or reject: MIC of CC1(C)[C@H](NC(=O)/C(=N\OCCOc2cnc(C(=N)N)c(O)c2)c2csc(N)n2)C(=O)N1OS(=O)(=O)O lies strictly below 4 µg/mL
Result: Not satisfied

Ask: Confirm or reject: MIC of CC1(C)[C@H](NC(=O)/C(=N\OCCOc2ccc(C(=N)NCCNC(=N)N)cc2)c2csc(N)n2)C(=O)N1OS(=O)(=O)O lies strictly below 4 µg/mL
Result: Satisfied

Ask: Confirm or reject: MIC of CC1(C)[C@H](NC(=O)/C(=N\O[C@@H](COc2ccc(C(=N)N[C@@H]3CCNC3)cc2)C(=O)O)c2csc(N)n2)C(=O)N1OS(=O)(=O)O lies strictly below 4 µg/mL
Result: Satisfied

Ask: Confirm or reject: MIC of CC1(C)[C@H](NC(=O)/C(=N\OCCOc2ccc(C(=N)NCCCN)cc2)c2csc(N)n2)C(=O)N1OS(=O)(=O)O lies strictly below 4 µg/mL
Result: Satisfied

Ask: Confirm or reject: MIC of CC1(C)[C@H](NC(=O)/C(=N\O[C@@H](COc2ccc(C(=N)NC3CCNCC3)cc2)C(=O)O)c2csc(N)n2)C(=O)N1OS(=O)(=O)O lies strictly below 4 µg/mL
Result: Satisfied

Ask: Confirm or reject: MIC of CC1(C)[C@H](NC(=O)/C(=N\OCc2ccc(C(=N)N)cc2)c2csc(N)n2)C(=O)N1OS(=O)(=O)O lies strictly below 4 µg/mL
Result: Satisfied

Ask: Confirm or reject: MIC of CC1(C)[C@H](NC(=O)/C(=N\OCCOc2ccc(C(=N)NCC[N+]3(C)CCCC3)cc2)c2csc(N)n2)C(=O)N1OS(=O)(=O)O.O=C([O-])C(F)(F)F lies strictly below 4 µg/mL
Result: Satisfied

====

- Tested on: Bacteria
- protocol description: MIC determination in combination with β-lactamase inhibitors (constant 4 μg/mL)
- Format: cell-based
- condition: strain 19; E. coli J62-TEM-3 + 4 μg/mL clavulanic acid
recorded endpoint: MIC strain 19 (E. coli J62-TEM-3 + 4 μg/mL clavulanic acid) (µg/mL)
// note: answer is a bare numeric in µg/mL

Ask: Quote Bacteria MIC strain 19 (E. coli J62-TEM-3 + 4 μg/mL clavulanic acid) for entry CC1(C)[C@H](NC(=O)/C(=N\OC(COc2ccc(C(=N)N)cc2)CC(=O)O)c2csc(N)n2)C(=O)N1OS(=O)(=O)O (mixture of isomers) .
Result: 1

Ask: Quote Bacteria MIC strain 19 (E. coli J62-TEM-3 + 4 μg/mL clavulanic acid) for entry CC1(C)[C@H](NC(=O)/C(=N\O[C@@H](COc2ccc(C(=N)NCC3CCCN3)cc2)C(=O)O)c2csc(N)n2)C(=O)N1OS(=O)(=O)O (stereo partly drawn) .
Result: 0.125

====

- System: S. aureus 133
- protocol description: MIC determination, broth microdilution (CLSI)
- Type: cell-based
- condition: Staphylococcus aureus, 133, strain 11; read-out: strain 11 MIC
recorded endpoint: MIC (µg/mL)
// note: answer is a bare numeric in µg/mL

Ask: Please give measured MIC of the following entry: C[C@H]1[C@H](NC(=O)/C(=N\OCCOc2ccc(C(=N)N)nn2)c2csc(N)n2)C(=O)N1S(=O)(=O)O
Result: 0.125

Ask: Please give measured MIC of the following entry: C[C@H]1[C@H](NC(=O)/C(=N\OCCOc2ccc(C(=N)NNC=O)cc2)c2csc(N)n2)C(=O)N1S(=O)(=O)O
Result: 0.5

====

- Test system: S. aureus 133
- protocol description: MIC determination, broth microdilution (CLSI)
- Assay type: cell-based
- condition: Staphylococcus aureus, 133, strain 11; read-out: strain 11 MIC
Would you kindly list MIC for each of these molecules?

Ask: Please give measured MIC of the following entry: CC1(C)[C@H](NC(=O)/C(=N\O[C@@H](COc2ccc(C(=N)NC3CCCNC3)cc2)C(=O)O)c2csc(N)n2)C(=O)N1OS(=O)(=O)O (stereo partly shown)
Result: ≤ 0.063 µg/mL

Ask: Please give measured MIC of the following entry: C[C@H]1[C@H](NC(=O)/C(=N\OCCOc2ccc(C(=N)NN)cc2)c2csc(N)n2)C(=O)N1S(=O)(=O)O
Result: 16 µg/mL

Ask: Please give measured MIC of the following entry: CNC(=N)c1ccc(OCCO/N=C(\C(=O)N[C@@H]2C(=O)N(S(=O)(=O)O)[C@H]2C)c2csc(N)n2)cc1
Result: ≤ 0.063 µg/mL

Ask: Please give measured MIC of the following entry: C[C@H]1[C@H](NC(=O)/C(=N\OCCOc2cc(C(=N)N)nn2C)c2csc(N)n2)C(=O)N1S(=O)(=O)O
Result: 0.25 µg/mL

Ask: Please give measured MIC of the following entry: C[C@H]1[C@H](NC(=O)/C(=N\OCCOc2ccc(C(=N)N)cc2COC=O)c2csc(N)n2)C(=O)N1S(=O)(=O)O
Result: 0.25 µg/mL

Ask: Please give measured MIC of the following entry: CC1(C)[C@H](NC(=O)/C(=N\OCCOc2ccc(C(=N)N)nc2)c2csc(N)n2)C(=O)N1OS(=O)(=O)O
Result: ≤ 0.063 µg/mL

Ask: Please give measured MIC of the following entry: CC1(C)[C@H](NC(=O)/C(=N\OC(CO)COc2ccc(C(=N)N)cc2)c2csc(N)n2)C(=O)N1OS(=O)(=O)O (mixture of isomers) [Example 45B]
Result: ≤ 0.063 µg/mL

Ask: Please give measured MIC of the following entry: CC1(C)[C@H](NC(=O)/C(=N\OCCOc2ccc(C3=NCC(CN)N3)cc2)c2csc(N)n2)C(=O)N1OS(=O)(=O)O (stereo partly shown)
Result: ≤ 0.063 µg/mL

Ask: Please give measured MIC of the following entry: CN(C)CCNC(=N)c1ccc(OCCO/N=C(\C(=O)N[C@@H]2C(=O)N(OS(=O)(=O)O)C2(C)C)c2csc(N)n2)cc1
Result: ≤ 0.063 µg/mL

Ask: Please give measured MIC of the following entry: CC1(C)[C@H](NC(=O)/C(=N\O[C@@H](COc2ccc(C(=N)NC(CN)CN)cc2)C(=O)O)c2csc(N)n2)C(=O)N1OS(=O)(=O)O
Result: ≤ 0.063 µg/mL

Ask: Please give measured MIC of the following entry: Cc1cc(OCCO/N=C(\C(=O)N[C@@H]2C(=O)N(OS(=O)(=O)O)C2(C)C)c2csc(N)n2)ccc1C(=N)N
Result: ≤ 0.063 µg/mL

Ask: Please give measured MIC of the following entry: C[C@H]1[C@H](NC(=O)/C(=N\OCc2ccc(C(=N)N)cc2)c2csc(N)n2)C(=O)N1S(=O)(=O)O
Result: 0.25 µg/mL

Ask: Please give measured MIC of the following entry: C[C@H]1[C@H](NC(=O)/C(=N\OCCOc2ccc(C(=N)NCCOC=O)cc2)c2csc(N)n2)C(=O)N1S(=O)(=O)O
Result: 0.125 µg/mL
